Origin of measurements: patent US9382254B2

target: CFTR-G178R (Homo sapiens, UniProt P13569, G178R); assay: YFP-halide influx assay for the CFTR-G178R
Sequence (P13569 whole entry G178R): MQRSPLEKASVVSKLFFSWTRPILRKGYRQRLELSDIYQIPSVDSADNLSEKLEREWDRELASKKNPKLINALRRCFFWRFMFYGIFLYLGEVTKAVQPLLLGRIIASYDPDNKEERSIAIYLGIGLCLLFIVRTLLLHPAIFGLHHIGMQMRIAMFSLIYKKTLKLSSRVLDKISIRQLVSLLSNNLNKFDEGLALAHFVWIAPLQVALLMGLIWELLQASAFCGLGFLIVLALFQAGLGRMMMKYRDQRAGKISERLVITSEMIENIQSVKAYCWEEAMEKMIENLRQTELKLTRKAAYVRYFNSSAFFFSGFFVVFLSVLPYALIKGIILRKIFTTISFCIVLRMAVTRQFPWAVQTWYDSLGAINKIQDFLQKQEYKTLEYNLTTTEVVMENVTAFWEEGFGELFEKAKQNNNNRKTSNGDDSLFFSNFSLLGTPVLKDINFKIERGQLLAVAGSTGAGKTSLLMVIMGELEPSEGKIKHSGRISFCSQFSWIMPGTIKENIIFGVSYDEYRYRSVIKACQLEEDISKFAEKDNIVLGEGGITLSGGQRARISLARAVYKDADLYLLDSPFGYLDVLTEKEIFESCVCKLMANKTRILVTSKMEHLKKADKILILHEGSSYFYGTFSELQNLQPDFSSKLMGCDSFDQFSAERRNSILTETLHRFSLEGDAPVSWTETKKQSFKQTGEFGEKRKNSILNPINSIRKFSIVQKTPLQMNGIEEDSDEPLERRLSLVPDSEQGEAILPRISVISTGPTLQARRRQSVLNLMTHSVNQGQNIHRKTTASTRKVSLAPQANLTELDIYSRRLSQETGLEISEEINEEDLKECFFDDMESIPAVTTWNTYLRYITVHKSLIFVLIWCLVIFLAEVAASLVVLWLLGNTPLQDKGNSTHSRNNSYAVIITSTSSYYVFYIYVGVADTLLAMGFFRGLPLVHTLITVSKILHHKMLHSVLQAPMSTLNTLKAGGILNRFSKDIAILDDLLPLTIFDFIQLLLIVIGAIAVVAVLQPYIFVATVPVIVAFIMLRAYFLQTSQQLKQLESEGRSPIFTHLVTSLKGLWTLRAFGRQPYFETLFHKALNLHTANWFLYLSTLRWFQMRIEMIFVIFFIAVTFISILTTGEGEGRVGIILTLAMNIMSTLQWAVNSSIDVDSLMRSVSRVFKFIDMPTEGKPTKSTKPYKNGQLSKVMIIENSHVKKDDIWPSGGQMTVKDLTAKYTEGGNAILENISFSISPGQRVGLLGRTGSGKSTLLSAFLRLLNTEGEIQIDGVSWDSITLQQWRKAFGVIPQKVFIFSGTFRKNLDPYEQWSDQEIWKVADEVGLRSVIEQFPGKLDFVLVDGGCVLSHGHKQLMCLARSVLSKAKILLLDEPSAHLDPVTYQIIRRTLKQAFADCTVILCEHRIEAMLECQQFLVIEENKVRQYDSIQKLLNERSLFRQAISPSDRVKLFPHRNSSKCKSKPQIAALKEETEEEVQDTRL
pEC50: −log10 of the molar value.
REPORTED_METRIC: pEC50

// below: answered molecules
- CC(C)(O)C(=O)Nc1sc(S(=O)(=O)c2ccc(OC(F)(F)F)c(F)c2)cc1C(N)=O [Compound 377]: 6.62
- CC(C)(O)C(=O)Nc1sc(S(=O)(=O)c2nc(C(C)(C)C)ccc2C(F)(F)F)cc1C(N)=O [Compound 426]: 8.01

a: COc1cc(S(=O)(=O)c2cc(C(N)=O)c(NC(=O)C(C)(C)O)s2)c(OC(F)F)cc1F [Compound 402]
b: CC(C)(O)C(=O)Nc1sc(S(=O)(=O)c2ccc(C#N)cc2C(F)(F)F)cc1C(N)=O [Compound 407]
c: CC(O)C(=O)Nc1sc(S(=O)(=O)c2ccc(C(F)(F)F)cc2F)cc1C(N)=O (stereo not shown) [Compound 368]
d: CC(C)(O)C(=O)Nc1sc(S(=O)(=O)c2nc(C(F)(F)F)ccc2C(F)(F)F)cc1C(N)=O [Compound 412]
Qu. Thanks in advance: please rank these 4 entries by pEC50, highest to lowest. Write out the labels following the order that was asked for.
Ans. d, c, a, b
(d: 7.95, c: 7.49, a: 6.61, b: 5.82)

1: CC(C)(O)C(=O)Nc1sc(S(=O)(=O)c2ccc(C(F)(F)F)c(Cl)n2)cc1C(N)=O [Compound 423]
2: CC(C)(O)C(=O)Nc1sc(S(=O)(=O)c2ccsc2C(F)(F)F)cc1C(N)=O [Compound 425]
3: CN(Cc1ccccc1)S(=O)(=O)c1cc(C(N)=O)c(NC(=O)c2ccn[nH]2)s1 [Compound 73]
Qu. Thanks in advance: please rank these 3 entries by pEC50, highest to lowest. Write out the labels following the order that was asked for.
Ans. 3, 1, 2
(3: 7.35, 1: 6.79, 2: 5.90)

* * *

target: CFTR-S549N (Homo sapiens, UniProt P13569, S549N); construct: expressed in transfected cells; experiment: YFP-halide influx assay for the CFTR-S549N; type: cell-based
Sequence (P13569 whole entry S549N): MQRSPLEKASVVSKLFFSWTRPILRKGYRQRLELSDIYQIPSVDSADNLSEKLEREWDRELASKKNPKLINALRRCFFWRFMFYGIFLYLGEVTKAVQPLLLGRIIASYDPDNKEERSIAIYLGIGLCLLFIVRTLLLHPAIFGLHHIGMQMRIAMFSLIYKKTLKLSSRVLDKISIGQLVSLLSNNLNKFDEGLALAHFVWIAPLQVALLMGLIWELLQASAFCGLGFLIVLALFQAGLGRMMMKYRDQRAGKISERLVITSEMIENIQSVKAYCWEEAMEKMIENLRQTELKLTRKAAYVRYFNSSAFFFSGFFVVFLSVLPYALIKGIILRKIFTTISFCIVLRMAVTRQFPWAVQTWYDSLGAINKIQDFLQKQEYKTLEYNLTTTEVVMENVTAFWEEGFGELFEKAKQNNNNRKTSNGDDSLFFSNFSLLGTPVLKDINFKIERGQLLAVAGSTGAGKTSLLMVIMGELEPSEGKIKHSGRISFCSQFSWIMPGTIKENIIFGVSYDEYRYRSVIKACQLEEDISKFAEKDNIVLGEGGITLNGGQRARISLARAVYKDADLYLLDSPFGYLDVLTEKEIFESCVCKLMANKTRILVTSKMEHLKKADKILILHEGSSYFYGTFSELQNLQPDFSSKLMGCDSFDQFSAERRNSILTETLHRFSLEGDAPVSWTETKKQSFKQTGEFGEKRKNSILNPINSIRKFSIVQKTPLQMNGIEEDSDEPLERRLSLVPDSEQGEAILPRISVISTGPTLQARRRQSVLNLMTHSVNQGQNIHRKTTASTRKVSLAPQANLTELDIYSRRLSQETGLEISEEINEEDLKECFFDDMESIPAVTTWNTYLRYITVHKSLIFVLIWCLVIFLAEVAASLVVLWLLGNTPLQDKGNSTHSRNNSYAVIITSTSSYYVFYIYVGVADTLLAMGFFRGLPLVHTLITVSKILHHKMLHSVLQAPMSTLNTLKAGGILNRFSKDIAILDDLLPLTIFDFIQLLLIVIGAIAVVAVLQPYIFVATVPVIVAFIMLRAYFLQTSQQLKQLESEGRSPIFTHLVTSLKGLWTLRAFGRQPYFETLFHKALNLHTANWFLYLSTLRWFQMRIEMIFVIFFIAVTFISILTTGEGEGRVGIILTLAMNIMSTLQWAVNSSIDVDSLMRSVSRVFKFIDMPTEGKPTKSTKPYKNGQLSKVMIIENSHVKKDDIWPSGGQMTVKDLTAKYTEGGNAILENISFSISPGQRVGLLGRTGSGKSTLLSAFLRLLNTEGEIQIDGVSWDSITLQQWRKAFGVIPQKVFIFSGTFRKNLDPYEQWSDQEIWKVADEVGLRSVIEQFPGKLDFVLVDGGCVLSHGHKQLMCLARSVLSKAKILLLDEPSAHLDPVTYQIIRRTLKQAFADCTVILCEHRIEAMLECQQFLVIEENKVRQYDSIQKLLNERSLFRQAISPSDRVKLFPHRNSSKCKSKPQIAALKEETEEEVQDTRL
pEC50: −log10 of the molar value.
REPORTED_METRIC: pEC50

// below: answered molecules
* CC(C)(O)C(=O)Nc1sc(S(=O)(=O)c2ccc(OC(F)(F)F)cc2)cc1C(N)=O | 6.38
* CC(CO)C(=O)Nc1sc(S(=O)(=O)c2ccc(Cl)cc2OC(F)(F)F)cc1C(N)=O (stereo not shown) | 6.68
* CC(C)(O)C(=O)Nc1sc(S(=O)(=O)c2ccc(C#N)cc2OC(F)(F)F)cc1C(N)=O | 6.59

1: CC(C)(O)C(=O)Nc1sc(S(=O)(=O)c2cc(Cl)ccc2OC(F)F)cc1C(N)=O
2: CC(C)(O)C(=O)Nc1sc(S(=O)(=O)c2ccc(C#N)cc2C(F)(F)F)cc1C(N)=O
Qu. # min-compare on pEC50 between 1 and 2 Lab note: record the label of whichever item you select.
Ans. 2

a: CC(CO)C(=O)Nc1sc(S(=O)(=O)c2ccc(F)cc2Cl)cc1C(N)=O (stereo not shown)
b: CC(C)(O)C(=O)Nc1sc(S(=O)(=O)c2cc(F)ccc2Br)cc1C(N)=O
c: CC(CO)C(=O)Nc1sc(S(=O)(=O)c2ccc(C(F)(F)F)cc2)cc1C(N)=O (stereo not shown)
d: CC(O)C(=O)Nc1sc(S(=O)(=O)c2ccc(C(F)(F)F)cc2F)cc1C(N)=O (stereo not shown)
Qu. Thanks in advance: please rank these 4 entries by pEC50, highest to lowest. Write out the labels following the order that was asked for.
Ans. d, a, c, b

* * *

target: CFTR ΔF508 mutant (Homo sapiens, UniProt P13569, DEL508-508); construct: expressed in transfected cells; host or cells: CFBE41o- (adenoviral transduction); experiment: YFP-halide influx assay for the CFTR-ΔF508 mutation, gluconate buffer; format: cell-based; settings: CFBE41o- cells, forskolin 10.67 μM
Sequence (P13569 with tags, fused parts or gaps DEL508-508): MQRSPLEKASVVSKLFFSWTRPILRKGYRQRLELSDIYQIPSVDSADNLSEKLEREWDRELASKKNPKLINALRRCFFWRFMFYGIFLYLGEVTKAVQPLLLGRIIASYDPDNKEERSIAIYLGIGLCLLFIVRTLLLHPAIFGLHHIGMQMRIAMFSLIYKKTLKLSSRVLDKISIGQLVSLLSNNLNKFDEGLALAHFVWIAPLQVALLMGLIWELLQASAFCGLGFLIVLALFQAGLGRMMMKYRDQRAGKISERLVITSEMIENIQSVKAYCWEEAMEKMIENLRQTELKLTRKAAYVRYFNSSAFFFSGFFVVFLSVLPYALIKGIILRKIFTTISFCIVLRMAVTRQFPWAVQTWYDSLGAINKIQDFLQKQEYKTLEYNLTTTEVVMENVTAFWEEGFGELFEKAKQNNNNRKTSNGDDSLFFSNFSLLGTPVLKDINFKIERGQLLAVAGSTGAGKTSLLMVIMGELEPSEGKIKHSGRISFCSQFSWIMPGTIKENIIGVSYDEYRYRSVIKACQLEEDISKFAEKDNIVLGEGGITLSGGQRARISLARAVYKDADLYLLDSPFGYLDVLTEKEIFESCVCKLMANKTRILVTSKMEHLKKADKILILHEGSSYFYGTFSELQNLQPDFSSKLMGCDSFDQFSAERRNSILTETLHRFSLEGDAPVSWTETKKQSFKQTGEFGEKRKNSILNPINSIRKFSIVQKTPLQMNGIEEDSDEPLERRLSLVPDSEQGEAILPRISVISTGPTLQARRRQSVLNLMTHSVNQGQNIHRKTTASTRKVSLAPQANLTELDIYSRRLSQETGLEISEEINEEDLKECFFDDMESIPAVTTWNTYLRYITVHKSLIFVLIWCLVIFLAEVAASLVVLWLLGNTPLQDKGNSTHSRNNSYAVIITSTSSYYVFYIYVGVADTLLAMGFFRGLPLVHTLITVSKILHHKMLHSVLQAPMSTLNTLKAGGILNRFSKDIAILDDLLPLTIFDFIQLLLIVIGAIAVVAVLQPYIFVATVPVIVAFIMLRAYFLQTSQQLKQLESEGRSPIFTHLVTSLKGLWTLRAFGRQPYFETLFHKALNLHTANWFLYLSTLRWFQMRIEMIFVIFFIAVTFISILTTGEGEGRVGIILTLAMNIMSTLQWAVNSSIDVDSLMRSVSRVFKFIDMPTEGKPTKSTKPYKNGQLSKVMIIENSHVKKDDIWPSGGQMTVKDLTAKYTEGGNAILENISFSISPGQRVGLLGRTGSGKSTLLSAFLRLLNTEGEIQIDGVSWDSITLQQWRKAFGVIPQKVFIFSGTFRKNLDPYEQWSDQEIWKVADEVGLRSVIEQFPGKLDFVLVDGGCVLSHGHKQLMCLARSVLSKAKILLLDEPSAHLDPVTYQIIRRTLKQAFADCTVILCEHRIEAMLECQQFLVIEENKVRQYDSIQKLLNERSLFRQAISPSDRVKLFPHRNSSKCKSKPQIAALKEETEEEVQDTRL
pEC50: −log10 of the molar value.
REPORTED_METRIC: pEC50

// below: answered compounds
• NC(=O)c1cc(S(=O)(=O)c2ccccn2)sc1NC(=O)c1ccccc1F [Compound 178] = 6.28
• NC(=O)c1cc(S(=O)(=O)N2CCCCC2)sc1NC(=O)c1cnn2cccnc12 [Compound 41] = 5.01
• CCc1cc(C(=O)Nc2sc(S(=O)(=O)c3ccc(F)c(F)c3)cc2C(N)=O)n[nH]1 [Compound 119] = 7.11

P: CN(Cc1ccccc1)S(=O)(=O)c1cc(C(N)=O)c(NC(=O)c2ccn[nH]2)s1 [Compound 73]
Q: CN(CC1CC1)S(=O)(=O)c1cc(C(N)=O)c(NC(=O)c2cc[nH]n2)s1 [Compound 193]
Qu. # min-compare on pEC50 between P and Q Lab note: record the label of whichever item you select.
Ans. Q
(Q: 6.94, P: 7.60)

I: NC(=O)c1cc(S(=O)(=O)N2CCc3ccccc3C2)sc1NC(=O)c1ccccc1F [Compound 150]
II: NC(=O)c1cc(S(=O)(=O)N2CCCCC2)sc1NC(=O)c1cccc(-c2cc[nH]n2)c1 [Compound 54]
Qu. Which is greater in pEC50, the first item I or the second item II ? Lab note: record the label of whichever item you select.
Ans. I
(I: 6.19, II: 5.50)

A: NC(=O)c1cc(S(=O)(=O)N2CCCCC2)sc1NC(=O)c1ccccc1C1CC1 [Compound 52]
B: Cc1c(S(=O)(=O)c2ccccc2)sc(NC(=O)c2ccccc2F)c1C(N)=O [Compound 87]
C: CC(C)N(C(C)C)S(=O)(=O)c1cc(C(N)=O)c(NC(=O)c2ccccc2F)s1 [Compound 154]
D: NC(=O)c1cc(S(=O)(=O)N2CCCCC2)sc1NC(=O)C1(c2ccccc2)CC1 [Compound 57]
E: NC(=O)c1cc(S(=O)(=O)N2CCCCC2)sc1NC(=O)c1cc2c(F)cccc2s1 [Compound 2]
Qu. List by increasing pEC50. Write out the labels following the order that was asked for.
Ans. D, E, A, C, B

a: CC(C)(C)c1cc(C(=O)Nc2sc(S(=O)(=O)c3ccccc3)cc2C(N)=O)n[nH]1 [Compound 96]
b: COc1ccc(OC)c(S(=O)(=O)c2cc(C(N)=O)c(NC(=O)c3ccccc3F)s2)c1 [Compound 182]
Qu. # min-compare on pEC50 between a and b Lab note: record the label of whichever item you select.
Ans. a
(a: 6.60, b: 7.01)

* * *

biological target: CFTR ΔF508 mutant (Homo sapiens, UniProt P13569, DEL508-508); construct: expressed in transfected cells; host or cells: CFBE41o- (adenoviral transduction); test: YFP-halide influx assay for the CFTR-ΔF508 mutation, PBS buffer (96 well); format: cell-based; details: CFBE41o- cells, forskolin 10.67 μM
pEC50: −log10 of the molar value.
REPORTED_METRIC: pEC50

- CC(C)S(=O)(=O)c1cc(C(N)=O)c(NC(=O)C(C)(C)O)s1: 5.64
- NC(=O)c1cc(S(=O)(=O)c2ccc(F)cc2)sc1NC(=O)c1cccnc1F: 6.01
- COC(C)(C)C(=O)Nc1sc(S(=O)(=O)c2ccc(F)cc2)cc1C(N)=O: 6.71
- COc1ccc(F)cc1S(=O)(=O)c1cc(C(N)=O)c(NC(=O)C(C)(C)O)s1: 7.02
- CC(C)(O)C(=O)Nc1sc(S(=O)(=O)c2ccc(OC(F)(F)F)cc2)cc1C(N)=O: 7.71
- NC(=O)c1cc(S(=O)(=O)c2ccccc2)sc1NC(=O)c1cc[nH]n1: 7.51

I: CC(CO)C(=O)Nc1sc(S(=O)(=O)c2ccc(F)cc2)cc1C(N)=O (stereo not drawn)
II: COc1ccc(CN(C)S(=O)(=O)c2cc(C(N)=O)c(NC(=O)C3(O)CC3)s2)cc1
III: CC(C)(O)C(=O)Nc1sc(S(=O)(=O)N2CCC(F)(F)CC2)cc1C(N)=O
IV: NC(=O)c1cc(S(=O)(=O)c2ccccc2C(F)(F)F)sc1NC(=O)C1(O)CC1
Qu. List by increasing pEC50. Write out the labels following the order that was asked for.
Ans. III, I, II, IV

P: NC(=O)c1cc(S(=O)(=O)N2CC=C(C(F)(F)F)CC2)sc1NC(=O)c1ccccc1F
Q: CC(O)C(=O)Nc1sc(S(=O)(=O)c2ccc(F)cc2)cc1C(N)=O (stereo not drawn)
Qu. Which is greater in pEC50, the first item P or the second item Q ? Lab note: record the label of whichever item you select.
Ans. P
(P: 7.45, Q: 7.07)

1: CC(C)=CC(=O)Nc1sc(S(=O)(=O)c2ccc(F)cc2)cc1C(N)=O
2: NC(=O)c1cc(S(=O)(=O)N2CCOCC2)sc1NC(=O)c1c(O)cc(F)cc1F
Qu. Which is greater in pEC50, the first item 1 or the second item 2 ? Lab note: record the label of whichever item you select.
Ans. 2

1: CC(C)(O)C(=O)Nc1sc(S(=O)(=O)c2cccc(OC(F)(F)F)c2)cc1C(N)=O
2: Cc1cc(S(=O)(=O)c2cc(C(N)=O)c(NC(=O)C(C)(C)O)s2)ccn1
3: COc1ccc(S(=O)(=O)c2cc(C(N)=O)c(NC(=O)C3(O)CC3)s2)cc1
Qu. List by increasing pEC50. Write out the labels following the order that was asked for.
Ans. 2, 3, 1
(2: 6.04, 3: 7.22, 1: 7.48)
